From: patent US10183015B2

experiment: PK parameters for representative compounds (i.v. and p.o.), Table 4; settings: in vivo, iv; i.v. @ 2 mg/kg
readout: Vd

Need Vd, item CC(C)(C)c1cc(-c2nc(-c3ccc(NS(=O)(=O)C(F)(F)F)cc3Cl)cs2)ccn1 0.345 L/kg

----------
system: HepG2 cells; test: HepG2 cell viability under serum-free conditions (MTS); format: cell-based; conditions: Homo sapiens, HepG2, 72 h; 5 μM, 3 days, DMEM without FBS; read-out: Average Viability (% Inhibition, n = 3)
cytotoxicity at 5 µM strictly less than 90% = T. Otherwise F.

Does O=S(=O)(Nc1ccc(-c2csc(-c3cccc(N4CCCCC4)c3)n2)c(Cl)c1)C(F)(F)F [Compound 88] have cytotoxicity at 5 µM strictly under 90%? T

Cool, now O=S(=O)(Nc1ccc(-c2csc(-c3ccccc3-c3ccccc3)n2)c(Cl)c1)C(F)(F)F [Compound 74] F

Next molecule: O=S(=O)(Nc1ccc(-c2csc(-c3ccc4cc[nH]c4c3)n2)c(Cl)c1)C(F)(F)F [Compound 72] F

Please do the same for O=S(=O)(Nc1ccc(-c2csc(-c3c[nH]c4ccccc34)n2)c(Cl)c1)C(F)(F)F [Compound 93] as well. T

Query O=S(=O)(Nc1ccc(-c2csc(-c3ccnc(CC4CCCCC4)c3)n2)c(Cl)c1)C(F)(F)F [Compound 70] next F

Check Cc1noc(C)c1-c1nc(-c2ccc(NS(=O)(=O)C(F)(F)F)cc2Cl)cs1 [Compound 77] too. T
